# Read-out: Vascular cell adhesion molecule 1 (VCAM1), VCAM1 (gene 7412)
# TEST_METHOD_NOTES: BSK_4H_VCAM1: BioMAP Diversity Plus: 4H Assay for Vascular cell adhesion molecule 1 (VCAM1) Biomarker Activity (AID 2283033)
# PROTOCOL_CONDITIONS: primary human endothelial cells (HUVEC); actives raise or lower the signal
Activity calls are given as the source filed them. Rule for the calls: active = hit-call score of the fitted dose curve at least 0.9, where 1 is the maximum; inactive = score below 0.9.
Answer with one of the outcomes True = active, False = inactive

SMI: Oc1c(Cl)cc(Cl)cc1Sc1cc(Cl)cc(Cl)c1O
CATEGORY_LABEL: True
//
SMI: CN(Cc1cnc2nc(N)nc(N)c2n1)c1ccc(C(=O)N[C@@H](CCC(=O)O)C(=O)O)cc1
CATEGORY_LABEL: False
//
SMI: C=CC(=O)OCCC(F)(F)C(F)(F)C(F)(F)C(F)(F)C(F)(F)C(F)(F)C(F)(F)C(F)(F)F
CATEGORY_LABEL: False
//
SMI: CN(C)c1ccc(C(=C2C=CC(=[N+](C)C)C=C2)c2ccccc2)cc1
CATEGORY_LABEL: True
//
SMI: O=C1c2ccc(O)c(O)c2C(=O)c2c(O)ccc(O)c21
CATEGORY_LABEL: False
//
SMI: OCC(CO)(CBr)CBr
CATEGORY_LABEL: False
//
SMI: NC(=NCCCCCCN=C(N)/N=C(\N)Nc1ccc(Cl)cc1)/N=C(\N)Nc1ccc(Cl)cc1
CATEGORY_LABEL: True
//
SMI: COCN(COC)c1nc(N(COC)COC)nc(N(COC)COC)n1
CATEGORY_LABEL: False

What classification did Clc1ccc(Nc2nnc(Cc3ccncc3)c3ccccc23)cc1 end up with in this test?
False

----------
# Read-out: Vascular cell adhesion molecule 1 (VCAM1), VCAM1 (gene 7412)
# TEST_METHOD_NOTES: BSK_LPS_VCAM1: BioMAP Diversity Plus: LPS Assay for Vascular cell adhesion molecule 1 (VCAM1) Biomarker Activity (AID 2283086)
# PROTOCOL_CONDITIONS: primary human HUVEC with PBMC; actives raise or lower the signal
Activity calls are given as the source filed them. Rule for the calls: active = hit-call score of the fitted dose curve at least 0.9, where 1 is the maximum; inactive = score below 0.9.
Answer with one of the outcomes active, inactive

COMPOUND: CCCCC(CC)C(=O)OCCOCCOCCOCCOC(=O)C(CC)CCCC (stereo not given)
CATEGORY_LABEL: inactive
//
COMPOUND: CCCCc1oc2ccccc2c1C(=O)c1cc(I)c(OCCN(CC)CC)c(I)c1
CATEGORY_LABEL: active
//
COMPOUND: O=P(O)(O)CCC(F)(F)C(F)(F)C(F)(F)C(F)(F)C(F)(F)C(F)(F)C(F)(F)C(F)(F)F
CATEGORY_LABEL: inactive
//
COMPOUND: Cc1[nH]nc2c1N=C(c1ccccc1Cl)c1cc([N+](=O)[O-])ccc1N2
CATEGORY_LABEL: active

Here is another compound to look at.
What classification did COCN(COC)c1nc(N(COC)COC)nc(N(COC)COC)n1 end up with in this test?
inactive

----------
# TEST_METHOD_NOTES: ATG_Oct_MLP_CIS: Attagene CIS-FACTORIAL HepG2 Assay for human Octamer-Binding Transcription Factor (Oct) (AID 2282993)
# PROTOCOL_CONDITIONS: HepG2 Attagene cis-factorial Oct reporter, mRNA; actives raise or lower the signal
Calls of active or inactive are those of the source. The calls were made as follows: active = hit-call score of the fitted dose curve at least 0.9, where 1 is the maximum; inactive = score below 0.9.
Answer with one of the outcomes 1 (active), 0 (inactive)

COMPOUND: C=CC(=O)OCC(CO)(COCC(COC(=O)C=C)(COC(=O)C=C)COC(=O)C=C)COC(=O)C=C
CATEGORY_LABEL: 1

COMPOUND: CCC(C)c1nccnc1OC (configuration not stated)
CATEGORY_LABEL: 0

COMPOUND: Cc1[nH]nc2c1N=C(c1ccccc1Cl)c1cc([N+](=O)[O-])ccc1N2
CATEGORY_LABEL: 0

COMPOUND: CN(CCO)S(=O)(=O)C(F)(F)C(F)(F)C(F)(F)C(F)(F)C(F)(F)C(F)(F)C(F)(F)C(F)(F)F
CATEGORY_LABEL: 0

COMPOUND: Cc1cncc(C)c1
CATEGORY_LABEL: 0

What classification did CCOC(C)=O end up with in this test?
0

What classification did FCOC(C(F)(F)F)C(F)(F)F end up with in this test?
0

What classification did Cc1cc(=O)oc2cc(O)ccc12 end up with in this test?
0

What classification did Brc1cc(Br)c(Oc2c(Br)cc(Br)c(Br)c2Br)cc1Br end up with in this test?
0

What classification did CC(C)[C@@H]1CC[C@@H](C)C[C@H]1O end up with in this test?
0

What classification did FC1(F)C=CC(F)(F)C1(F)F end up with in this test?
0

What classification did O=c1cc(-c2ccccc2)oc2ccc3ccccc3c12 end up with in this test?
0

What classification did CCCCCCCCC1CCC(=O)O1 (configuration not stated) end up with in this test?
0

----------
# ASSAY_SYSTEM: Transcription factor E2F1 (Homo sapiens) (UniProt Q01094)
# Sequence (Q01094 whole entry, looked up): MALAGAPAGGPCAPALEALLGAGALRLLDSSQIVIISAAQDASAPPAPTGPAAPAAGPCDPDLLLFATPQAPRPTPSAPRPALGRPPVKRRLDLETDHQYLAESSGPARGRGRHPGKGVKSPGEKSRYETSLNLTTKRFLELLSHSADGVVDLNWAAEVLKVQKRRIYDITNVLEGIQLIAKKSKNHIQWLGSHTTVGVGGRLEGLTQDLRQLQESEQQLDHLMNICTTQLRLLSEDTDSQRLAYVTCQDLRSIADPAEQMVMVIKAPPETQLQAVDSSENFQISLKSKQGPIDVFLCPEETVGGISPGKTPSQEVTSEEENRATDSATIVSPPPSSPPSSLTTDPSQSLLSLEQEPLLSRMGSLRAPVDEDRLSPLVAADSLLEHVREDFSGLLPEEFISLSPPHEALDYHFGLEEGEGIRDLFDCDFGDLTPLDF
# TEST_METHOD_NOTES: ATG_E2F_CIS: Attagene CIS-FACTORIAL HepG2 Assay for human E2F Transcription Factor 1 (AID 2282935)
# PROTOCOL_CONDITIONS: HepG2 Attagene cis-reporter, E2F reporter RNA transcripts; actives raise or lower the signal
The source made the active and inactive calls. Rule for the calls: active = hit-call score of the fitted dose curve at least 0.9, where 1 is the maximum; inactive = score below 0.9.
Answer with one of the outcomes yes (1) for active, no (0) for inactive

Example results:
COMPOUND: NCCN
CATEGORY_LABEL: no (0)
--
COMPOUND: CCCCCCCCCC=CCC1CC(=O)OC1=O (stereo unspecified)
CATEGORY_LABEL: no (0)
--
COMPOUND: CC=O
CATEGORY_LABEL: no (0)

What classification did CCCCCc1ccc(O)cc1 end up with in this test?
no (0)

What classification did C=CC(=O)OCC(CO)(COCC(COC(=O)C=C)(COC(=O)C=C)COC(=O)C=C)COC(=O)C=C end up with in this test?
yes (1)

What classification did O=C1NS(=O)(=O)c2ccccc21 end up with in this test?
no (0)

What classification did Oc1ccc(Cc2ccccc2O)cc1 end up with in this test?
no (0)

What classification did OCCN1CN(CCO)CN(CCO)C1 end up with in this test?
no (0)

----------
# Read-out: Interferon-gamma inducible Protein 10 (IP10), CXCL10 (gene 3627)
# TEST_METHOD_NOTES: BSK_hDFCGF_IP10: BioMAP Diversity Plus: hDFCGF Assay for Interferon-gamma inducible Protein 10 (IP10) Biomarker Activity (AID 2283053)
# PROTOCOL_CONDITIONS: primary human foreskin fibroblasts; actives raise or lower the signal
Activity calls are given as the source filed them. The calls were made as follows: active = hit-call score of the fitted dose curve at least 0.9, where 1 is the maximum; inactive = score below 0.9.
Answer with one of the outcomes true = active, false = inactive

SMI: Cc1[nH]nc2c1N=C(c1ccccc1Cl)c1cc([N+](=O)[O-])ccc1N2
CATEGORY_LABEL: false
--
SMI: CS(=O)(=O)c1ccc([C@@H](CC2CCCC2)C(=O)Nc2cnccn2)cc1Cl
CATEGORY_LABEL: false
--
SMI: CC1=NN(c2ccccc2)C(=O)C1
CATEGORY_LABEL: false

What classification did CN(Cc1cnc2nc(N)nc(N)c2n1)c1ccc(C(=O)N[C@@H](CCC(=O)O)C(=O)O)cc1 end up with in this test?
false

What classification did Cc1ccc(C(=O)c2ccccc2)cc1 end up with in this test?
true

What classification did CN(C)c1ccc(C(=C2C=CC(=[N+](C)C)C=C2)c2ccccc2)cc1 end up with in this test?
true

What classification did Cc1cccc2c1ccc1ccccc12 end up with in this test?
false

What classification did COc1cc(OC)nc(NC(=O)NS(=O)(=O)Nc2ccccc2C(=O)N(C)C)n1 end up with in this test?
false

----------
# TEST_METHOD_NOTES: ATG_Oct_MLP_CIS: Attagene CIS-FACTORIAL HepG2 Assay for human Octamer-Binding Transcription Factor (Oct) (AID 2282993)
# PROTOCOL_CONDITIONS: HepG2 Attagene cis-factorial Oct reporter, mRNA; actives raise or lower the signal
Activity calls are given as the source filed them. How the source made its calls: active means hit-call score of the fitted dose curve at least 0.9, where 1 is the maximum; inactive means score below 0.9.
Answer with one of the outcomes class 1 = active, class 0 = inactive

COMPOUND: C=CC(C)(CCC=C(C)C)OC(C)=O (configuration not stated)
CATEGORY_LABEL: class 0
--
COMPOUND: c1ccc2c(c1)CCC2
CATEGORY_LABEL: class 0
--
COMPOUND: CNNCc1ccc(C(=O)NC(C)C)cc1
CATEGORY_LABEL: class 0

What classification did COC(=O)C(F)(F)C(F)(F)C(F)(F)C(F)(F)C(F)(F)F end up with in this test?
class 0

What classification did O=C(OC(=O)C(F)(F)C(F)(F)F)C(F)(F)C(F)(F)F end up with in this test?
class 0

What classification did CCCCc1oc2ccccc2c1C(=O)c1cc(I)c(OCCN(CC)CC)c(I)c1 end up with in this test?
class 1

What classification did O=CC(F)(F)C(F)(F)C(F)(F)F end up with in this test?
class 0

What classification did CC(O)COc1ccccc1 (configuration not stated) end up with in this test?
class 0

What classification did O=C1OC(=O)c2cc(-c3ccc4c(c3)C(=O)OC4=O)ccc21 end up with in this test?
class 0
